Assay: A CellTox Green Cytotoxicity Assay to monitor cytotoxicity in HEK293 cells - 16 hour (AID 1224888); also: nearly all actives have a fitted effect of over 35% in size
Settings: CellTox Green fluorescence; series mostly up to 76.8 µM
Records with an inconclusive call do not appear. The source made the active and inactive calls. Calls follow the shape of the dose curve; as a rule, active = well fitted activation curve with a large enough effect in the repeat runs; inconclusive = weak or mixed curves; inactive = flat fitted curve, though single readings scatter.
Respond with a class label; see Yes (active), No (inactive)

Past entries and their recorded results:
[[record]]
compound = "CCCN(CCC)C(=O)C(CCC(=O)OCCCN1CCN(CCOC(=O)Cc2c(C)n(C(=O)c3ccc(Cl)cc3)c3ccc(OC)cc23)CC1)NC(=O)c1ccccc1 (centres undefined)"
classification = "No"

[[record]]
compound = "CC(=O)SC[C@@H](Cc1ccccc1)C(=O)NCC(=O)OCc1ccccc1"
classification = "No"

[[record]]
compound = "[Cl][Bi]([Cl])([c]1ccccc1)([c]1ccccc1)[c]1ccccc1"
classification = "Yes"

[[record]]
compound = "CN(C)[C@@H]1C(=O)C(C(N)=O)=C(O)[C@@]2(O)C(=O)C3=C(O)c4c(O)ccc(Cl)c4[C@@H](O)[C@H]3C[C@@H]12"
classification = "No"

[[record]]
compound = "CCc1cc(SCc2sc(-c3ccc(C(F)(F)F)cc3)nc2CN2CCN(c3ccc(OC)cc3)CC2)ccc1OCC(=O)O"
classification = "No"


Q: Hi, sorry to bother you, what did the test record for `Cc1cc(=O)oc2cc(N(C)C)ccc12` ?
A: No

Q: Test call, this compound: `O=c1cc(-c2ccc(O)cc2)oc2cc(O)cc(O)c12`
A: No

Q: What did the test return for `Oc1ccc2c(c1)-c1ccccc1C2` ?
A: No

Q: Could you kindly confirm the outcome this assay logged for `CCN(CCC#N)c1ccc(N=Nc2c(Cl)cc([N+](=O)[O-])cc2Cl)cc1` ?
A: No
